assayComment: Half-life was measured in mice after oral administration of 20 mg/kg
Assay type: ADME, organism-based
Set-up: dose 20 mg/kg, route oral
conditionInfo: mouse, in vivo
measurementType: half-life (h)
Numbers only, in h.

Cl.N=C1CCCN1Cc1[nH]c(=O)[nH]c(=O)c1Cl [TIPIRACIL HYDROCHLORIDE] :: 1.7

Please turn your attention to the following entry.
Recorded half-life (compound Nc1[nH]cc[n+]1Cc1[nH]c(=O)[nH]c(=O)c1Br ): 2.2

* * *

measurementTarget: Thymidine phosphorylase (Homo sapiens, UniProt P19971)
Sequence (P19971 whole entry): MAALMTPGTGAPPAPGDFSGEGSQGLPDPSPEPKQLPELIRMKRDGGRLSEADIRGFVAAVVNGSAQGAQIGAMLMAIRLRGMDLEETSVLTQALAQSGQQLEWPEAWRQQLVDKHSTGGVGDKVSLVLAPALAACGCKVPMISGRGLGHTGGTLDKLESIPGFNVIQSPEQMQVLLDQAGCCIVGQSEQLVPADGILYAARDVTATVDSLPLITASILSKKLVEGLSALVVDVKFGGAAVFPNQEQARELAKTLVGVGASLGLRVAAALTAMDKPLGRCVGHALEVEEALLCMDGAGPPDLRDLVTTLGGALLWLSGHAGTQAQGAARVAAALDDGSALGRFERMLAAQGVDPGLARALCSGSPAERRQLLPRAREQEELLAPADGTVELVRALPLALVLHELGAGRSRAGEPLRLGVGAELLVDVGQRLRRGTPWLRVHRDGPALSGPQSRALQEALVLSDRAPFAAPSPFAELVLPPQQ
measurementType: IC50 (µM)
Numbers only, in µM.

Recorded IC50 (molecule O=c1[nH]c(Cn2cnc([N+](=O)[O-])c2)c(Cl)c(=O)[nH]1 ): 200

* * *

assayComment: Clearance at time 0 was measured in mice after intravenous administration of 2 mg/kg
Type: ADME, organism-based
Design: dose 2 mg/kg, route intravenous
conditionInfo: mouse, in vivo
measurementType: clearance

Nc1[nH]cc[n+]1Cc1[nH]c(=O)[nH]c(=O)c1Br :: > 72 mL/min/kg

Please turn your attention to the following entry.
Recorded clearance (compound Cl.N=C1CCCN1Cc1[nH]c(=O)[nH]c(=O)c1Cl [TIPIRACIL HYDROCHLORIDE] ): > 72 mL/min/kg

* * *

assayComment: Maximum plasma concentration in mice after intraperitoneal administration of 10 mg/kg
Format: ADME, organism-based
Design: dose 10 mg/kg, route intraperitoneal
conditionInfo: mouse, ip
measurementType: Cmax (ng/mL)
Numbers only, in ng/mL.

Recorded Cmax (compound Nc1[nH]cc[n+]1Cc1[nH]c(=O)[nH]c(=O)c1Br ): 5080

* * *

assayComment: Half-life was measured in mice after intravenous administration of 2 mg/kg
Format: ADME, organism-based
Set-up: dose 2 mg/kg, route intravenous
conditionInfo: mouse, in vivo
measurementType: half-life (min)
Give bare numbers, in min.

Cl.N=C1CCCN1Cc1[nH]c(=O)[nH]c(=O)c1Cl [TIPIRACIL HYDROCHLORIDE] :: 6

Recorded half-life (compound Nc1[nH]cc[n+]1Cc1[nH]c(=O)[nH]c(=O)c1Br ): 12

* * *

Kindly supply the reported half-life values for the records listed here.
assayComment: Half-life was measured in mice after intraperitoneal administration of 10 mg/kg
Assay type: ADME, organism-based
Parameters: dose 10 mg/kg, route intraperitoneal
conditionInfo: mouse, in vivo, ip
Answers are plain numbers, in min.

Nc1[nH]cc[n+]1Cc1[nH]c(=O)[nH]c(=O)c1Br :: 60

Please turn your attention to the following entry.
Recorded half-life (compound Cl.N=C1CCCN1Cc1[nH]c(=O)[nH]c(=O)c1Cl [TIPIRACIL HYDROCHLORIDE] ): 48
